system under test: Recombinant human factor B (Homo sapiens (Human), UniProt P00751)
Sequence (P00751 26-764): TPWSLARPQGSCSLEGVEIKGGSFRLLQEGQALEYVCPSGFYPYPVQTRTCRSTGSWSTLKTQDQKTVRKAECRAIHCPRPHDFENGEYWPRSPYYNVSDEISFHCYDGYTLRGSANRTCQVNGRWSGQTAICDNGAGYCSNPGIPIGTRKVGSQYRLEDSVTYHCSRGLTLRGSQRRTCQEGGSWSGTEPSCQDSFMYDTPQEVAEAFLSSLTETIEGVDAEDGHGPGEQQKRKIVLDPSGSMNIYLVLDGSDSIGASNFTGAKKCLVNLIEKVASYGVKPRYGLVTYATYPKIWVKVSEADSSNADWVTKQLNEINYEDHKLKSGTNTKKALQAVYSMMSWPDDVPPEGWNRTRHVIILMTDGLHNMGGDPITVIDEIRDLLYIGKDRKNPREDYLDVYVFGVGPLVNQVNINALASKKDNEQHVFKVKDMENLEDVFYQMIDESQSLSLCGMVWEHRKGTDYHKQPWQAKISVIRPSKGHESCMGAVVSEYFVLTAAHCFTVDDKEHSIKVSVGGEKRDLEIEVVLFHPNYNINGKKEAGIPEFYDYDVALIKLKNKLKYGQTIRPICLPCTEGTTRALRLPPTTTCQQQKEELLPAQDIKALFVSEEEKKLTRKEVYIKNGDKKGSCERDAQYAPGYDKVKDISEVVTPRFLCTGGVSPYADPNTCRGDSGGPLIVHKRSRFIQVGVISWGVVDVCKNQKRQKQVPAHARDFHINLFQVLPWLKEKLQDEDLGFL
method description: Human Complement Factor B TR-FRET Assay
conditions used: assay of Biological Example 2; read-out: hFactor-B TR-FRET Qualified IC50
IC50 reference

Below: 3 compounds and their reported IC50.
> print(dat)
                         structure.notation    reported
1  COc1cc(C)c2[nH]ccc2c1C[C@H]1CCN(CC(F)(F)F)C[C@@H]1c1ccc(C(=O)O)cc1  < 30000 nM
2  Cc1cc(C)c2[nH]ccc2c1C[C@@H]1CCN(C2COC2)C[C@H]1c1ccc(-n2cccn2)cc1   < 1000 nM
3  Cc1cc(C)c2[nH]ccc2c1C[C@@H]1CCN(CCC(F)F)C[C@H]1c1ccc(C(=O)O)cc1    < 100 nM

Lab book: IC50 of Cc1ccc(C[C@@H]2CCN(C)C[C@H]2c2ccc(C(=O)O)cc2)c2cc[nH]c12 noted as < 100 nM

* * *

system under test: Recombinant human factor B (Homo sapiens (Human), UniProt P00751)
method description: Human Complement Factor B TR-FRET Assay
Type: binding
conditions used: assay of Biological Example 2; read-out: hFactor-B TR-FRET Qualified IC50
readout type: IC50

> print(dat)
                                   molecule  readout.type  reported
1  Cc1cc(Cl)c(C[C@@H]2CCN(C)C[C@H]2c2ccc(C(=O)O)cc2)c2cc[nH]c12 [Ex-36]          IC50  < 100 nM
2  COCCN1CC[C@@H](Cc2c(C)cc(C)c3[nH]ccc23)[C@H](c2ccc(C(=O)O)cc2)C1 [Ex-14]          IC50  < 100 nM
3  Cc1cc(C)c2[nH]ccc2c1C[C@@H]1CCN(C)C[C@H]1c1ccc(-n2cccn2)cc1 [Ex-46]          IC50  < 100 nM

Lab book: IC50 of Cc1cc(C)c2[nH]ccc2c1C[C@@H]1CCN(C)C[C@H]1c1ccc(C(=O)O)cc1 [Ex-8] noted as < 100 nM

Lab book: IC50 of CCN1C[C@@H](Cc2c(C3CC3)cc(C)c3[nH]ccc23)[C@H](c2ccc(-c3nnn[nH]3)cc2)C1 (racemic) [Ex-61] noted as < 100 nM

Lab book: IC50 of CN1CC[C@@H](Cc2c(Cl)cc(Cl)c3[nH]ccc23)[C@H](c2ccc(C(=O)O)cc2)C1 [Ex-37] noted as < 100 nM

Lab book: IC50 of Cc1cc(C)c2[nH]ccc2c1C[C@@H]1CCN(C)C[C@H]1c1ccc(C#N)cc1 [Ex-44] noted as < 1000 nM

Lab book: IC50 of Cc1cc(C)c2[nH]ccc2c1C[C@@H]1CCN(C2COC2)C[C@H]1c1ccc(C(=O)O)cc1 [Ex-21] noted as < 1000 nM

Lab book: IC50 of Cc1cc(C2CC2)c(C[C@@H]2CN(C)C[C@H]2c2ccc(C(=O)O)cc2)c2cc[nH]c12 [Ex-59] noted as < 100 nM

Lab book: IC50 of COc1cc(C)c2[nH]ccc2c1C[C@@H]1CCN(CC(F)(F)F)C[C@H]1c1ccc(C(=O)O)cc1 [Ex-5] noted as < 1000 nM

Lab book: IC50 of Cc1cc(C)c2[nH]ccc2c1C[C@@H]1CCN(CC2(F)COC2)C[C@H]1c1ccc(-n2cccn2)cc1 [Ex-49] noted as < 100 nM

Lab book: IC50 of Cc1cc(C)c2[nH]ccc2c1C[C@@H]1CCN(CC(F)(F)F)C[C@H]1c1ccc(-n2cccn2)cc1 [Ex-47] noted as < 1000 nM

Lab book: IC50 of Cc1cc(C)c2[nH]ccc2c1C[C@@H]1CCN(CC(F)(F)F)C[C@H]1c1ccc(C#N)cc1 [Ex-45] noted as < 30000 nM

Lab book: IC50 of Cc1cc(C)c2[nH]ccc2c1C[C@H]1CCN(C)C[C@@H]1c1ccc(C(=O)O)cc1 [Ex-9] noted as < 30000 nM

Lab book: IC50 of Cc1cc(C)c2[nH]ccc2c1C[C@@H]1CCN(CCC(F)F)C[C@H]1c1ccc(-n2cccn2)cc1 [Ex-48] noted as < 100 nM

Lab book: IC50 of Cc1cc(C)c2[nH]ccc2c1C[C@@H]1CCN(C)CC[C@H]1c1ccc(C(=O)O)cc1 [Ex-30] noted as < 100 nM
